- studySystem: UniProt P32300
- Sequence (P32300 whole entry): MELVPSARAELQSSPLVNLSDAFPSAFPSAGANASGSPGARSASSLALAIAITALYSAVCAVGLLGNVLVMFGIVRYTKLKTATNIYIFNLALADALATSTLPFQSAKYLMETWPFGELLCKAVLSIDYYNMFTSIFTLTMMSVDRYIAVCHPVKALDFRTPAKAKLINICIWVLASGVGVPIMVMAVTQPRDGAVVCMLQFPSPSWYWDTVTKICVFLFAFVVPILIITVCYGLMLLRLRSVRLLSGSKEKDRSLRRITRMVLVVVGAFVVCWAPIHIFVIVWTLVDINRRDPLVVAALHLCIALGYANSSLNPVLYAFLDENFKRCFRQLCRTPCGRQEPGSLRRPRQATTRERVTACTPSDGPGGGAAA
- testName: Competition binding against 125I-IBNtxA, CHO cell membranes
- protocolConditions: read-out: affinity (Ki) mDOR, 125I-IBNtxA (0.1 nM)
measure: Ki (nM)
Output spec: scalar in nM, unitless text.

Ki reported for this compound C=C[C@H]1CN2CCc3c([nH]c4cccc(OC)c34)[C@H]2C[C@@H]1/C(=C\OC)C(=O)OC [isopaynantheine] : 823

* * *

- studySystem: hH1 (Homo sapiens, UniProt P35367)
- Sequence (P35367 whole entry): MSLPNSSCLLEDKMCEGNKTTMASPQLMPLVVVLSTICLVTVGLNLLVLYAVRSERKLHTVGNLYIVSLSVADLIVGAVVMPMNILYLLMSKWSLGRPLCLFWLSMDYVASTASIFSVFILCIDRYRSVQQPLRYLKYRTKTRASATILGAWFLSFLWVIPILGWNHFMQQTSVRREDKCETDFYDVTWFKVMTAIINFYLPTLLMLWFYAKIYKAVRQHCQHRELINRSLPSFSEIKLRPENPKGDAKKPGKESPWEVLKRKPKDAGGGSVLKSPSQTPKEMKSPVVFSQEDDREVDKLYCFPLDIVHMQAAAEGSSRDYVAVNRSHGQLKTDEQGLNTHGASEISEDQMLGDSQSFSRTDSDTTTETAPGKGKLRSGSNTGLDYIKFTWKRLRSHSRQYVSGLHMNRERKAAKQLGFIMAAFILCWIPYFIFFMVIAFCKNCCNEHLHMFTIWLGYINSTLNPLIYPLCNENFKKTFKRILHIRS
measure: pKi
// scale note: pKi = -log10(conc_M); give the bare number

Observed pKi, hH1 (Homo sapiens, UniProt P35367), C=C[C@H]1CN2CCc3c([nH]c4cccc(OC)c34)[C@H]2C[C@@H]1/C(=C\OC)C(=O)OC [isopaynantheine] : 6.69

Source of measurements: paper PMC8328003
